Test system: giant foxtail
Test: Test B pre/postemergence giant foxtail
Format: in vivo, Setaria faberii
Settings: Postemergence, Rate 500 g/ha; scale of 0 to 10 where 0 is no effect and 10 is complete control
Experimental: […] At the same time, these crop and weed species were also treated with postemergence applications of test chemicals formulated in the same manner. […] Treated plants and controls were maintained in a greenhouse for twelve to sixteen days, after which all species were compared to controls and visually evaluated. […]
endpoint_label: Plant response rating, Giant foxtail
Simply state the number, no unit and no words.

Solved entries (count: 2):
CC(C)N(C(=O)n1oc(=O)n(CCCF)c1=O)c1ccccc1: 9
CC(C)N(C(=O)n1oc(=O)n(CCC2OCCCO2)c1=O)c1ccccc1: 8

Let us move to another entry and its Plant response rating, Giant foxtail.
Name the recorded Plant response rating, Giant foxtail of the molecule listed here: CC(C)N(C(=O)n1oc(=O)n(C(CF)CF)c1=O)c1ccc(F)cc1F
9

---

System: surinam grass
Experiment: Test B pre/postemergence surinam grass
Assay type: in vivo, Brachiaria decumbens
Details: Preemergence, Rate 500 g/ha; scale of 0 to 10 where 0 is no effect and 10 is complete control
Description: […] At the same time, these crop and weed species were also treated with postemergence applications of test chemicals formulated in the same manner. […] Treated plants and controls were maintained in a greenhouse for twelve to sixteen days, after which all species were compared to controls and visually evaluated. […]
Measured Plant response rating, B. signalgrass by item
Simply state the number, no unit and no words.

Solved entries (count: 2):
CC[C@H](C)n1c(=O)on(C(=O)N(c2ccc(Cl)cc2)C(C)C)c1=O: 8
CC(C)N(C(=O)n1oc(=O)n(N(C)C)c1=O)c1ccccc1: 7

Let us move to another entry and its Plant response rating, B. signalgrass.
Name the recorded Plant response rating, B. signalgrass of the compound listed here: Cc1nc(C)c(Cn2c(=O)on(C(=O)N(c3ccc(F)cc3)C(C)C)c2=O)s1
5

---

Measured Rape plant response rating by item
tested on: rape; experiment: Test B pre/postemergence rape; format: in vivo, Brassica napus; conditions: Preemergence, Rate 500 g/ha; scale of 0 to 10 where 0 is no effect and 10 is complete control
Simply state the number, no unit and no words.

Solved entries (count: 2):
COC(=O)CCCn1c(=O)on(C(=O)N(c2ccc(F)cc2F)C(C)C)c1=O [Compound 513]: 7
CC(C)N(C(=O)n1oc(=O)n(CC2CCC2)c1=O)c1ccccc1 [Compound 580]: 8

Let us move to another entry and its Rape plant response rating.
Name the recorded Rape plant response rating of the compound listed here: C=CCn1c(=O)on(C(=O)N(c2ccc(Cl)cc2)C(C)C2CC2)c1=O (stereo not drawn) [Compound 325]
0

---

tested on: surinam grass; assay: Test B pre/postemergence surinam grass; assay type: in vivo, Brachiaria decumbens; conditions: Postemergence, Rate 125 g/ha; scale of 0 to 10 where 0 is no effect and 10 is complete control
endpoint_label: Plant response rating, B. signalgrass
Simply state the number, no unit and no words.

CCOP(=O)(Cn1c(=O)on(C(=O)N(c2ccc(Cl)cc2)C(C)C)c1=O)OCC: 0
CCC=CCn1c(=O)on(C(=O)N(c2ccccc2)C(C)C)c1=O: 0

Find Plant response rating, B. signalgrass for CCC(C)n1c(=O)on(C(=O)N(c2ccccc2)C(C)C)c1=O (stereo not drawn) on surinam grass and write it down.
6
